tested on: NCI-H23 lung; assay: NCI tumour cell line growth inhibition, 48 h; in the data active means GI50 below about 0.43 µM; inactive means the rest
Allowed answers: active, inactive

For orientation, consider the following solved cases.
O=C1C=C(Nc2ccccc2)c2ccccc2C1=O :: inactive
CC1(C)N=C(N)N=C(N)N1c1ccc(OCCCNC(=O)Nc2ccc(S(=O)(=O)F)cc2)c(Cl)c1 :: inactive
O=C(CCCc1ccc(N(CCCl)CCCl)cc1)NCc1ccccc1 :: inactive
COc1cc2c(c3oc(-c4ccc(O)cc4)c(O)c(=O)c13)CCC(C)(C)O2 :: active
C[C@@H]1CN2[C@H]3[C@@H]1CC[C@]31CCC(=O)O[C@]1(C)[C@H]1CC[C@H]3CCC=C3[C@@H]12 :: inactive

input: Give the logged outcome of this assay for the following compound: O=S(=O)(NCCCNc1cc(-c2cn(-c3ccccc3)nc2-c2cccc(O)c2)ccn1)c1ccc(C(F)(F)F)cc1
output: inactive

input: Give the logged outcome of this assay for the following compound: O=C(NCc1cn(Cc2cccc(Oc3ccccc3)c2)nn1)c1cccnc1Nc1ccc(F)cc1
output: inactive

input: Give the logged outcome of this assay for the following compound: O=[N+]([O-])c1ccc(C2=NCCO2)cc1
output: inactive

input: Give the logged outcome of this assay for the following compound: COC(=O)N[C@H]1CCc2cc(OC)c(OC)c(OC)c2-c2ccc(SC)c(=O)cc21
output: active

###

system: BT-549 breast; assay: NCI tumour cell line growth inhibition, 48 h
Assign GI50 to each entry below.

For each of the compounds below, note its GI50.
1. Cn1cc(-c2ccc3nc(-c4ccc(CC(=O)Nc5cc(C(C)(C)C)no5)cc4)cnc3c2)cn1
2. O=C(/C=C\c1ccc(O)c(O)c1)c1ccccc1O
3. NS(=O)(=O)c1ccc(N(/C=C/C(=O)C(F)(F)F)CC(=O)c2ccc(F)cc2)cc1
4. CCN(Cc1ccc(OC)cc1)c1ccc(CO)c(Cl)c1
5. CCN1CCN(CCC(=O)Nc2cccc(-n3cc(-c4ccncc4)c(-c4ccc(Cl)c(OC)c4)n3)c2)CC1

output:
1. 0.206 µM
2. 3.61 µM
3. 19.3 µM
4. 12.7 µM
5. 1.38 µM

###

Assign TGI to each entry below.
system: NCI/ADR-RES ovarian; test: NCI tumour cell line growth inhibition, 48 h
Numbers only, in µM.

Some compounds with known TGI results, for comparison:
N=c1sc2ccccc2n1CCS (tested in a mixture with another compound) :: 45.3
Cc1ccc(N)c(S)c1 :: 56.8
COc1cc(/C=C2\CC3C4CC=C5CC(OC(C)=O)CC[C@]5(C)C4CC[C@]3(C)C2=O)ccc1OCCN1CCCC1 (some centres undefined) :: 24.9
COC(=O)c1c2c(c(C)[n+]([O-])c1C)C(=O)C(NCc1ccc(OC)cc1)=CC2=O :: 7.49
CS(=O)(=O)OCCN(CCOS(C)(=O)=O)c1ccc(C=Nc2ccc(-c3csc(COc4ccccc4)n3)cc2)cc1 :: 49.7

For each of the compounds below, note its TGI.
1. CC(C)(C)[Si](C)(C)OCC1OC(n2cnc3c(N)ncnc32)C2OC(=S)OC12 (centres undefined)
2. CN1CCN(Cn2nc(COc3ccccc3Cl)n(/N=C/c3ccc(-c4ccc(Cl)cc4Cl)o3)c2=S)CC1
3. COC(=O)c1cc2ccc(O)c(O)c2cn1
4. Cc1c(Cl)cccc1C(=O)Nc1nc2c(s1)CN(C(=O)Nc1cccc(C(F)(F)F)c1)CC2

output:
1. 81.2
2. 61.9
3. 46.1
4. 1.01

###

system: NCI-H460 lung; assay: NCI tumour cell line growth inhibition, 48 h
Assign TGI to each entry below.

Some molecules with known TGI results, for comparison:
CC(=O)OCC1OC(n2c3c(c(-c4ccc(C)cc4)c(C#N)c2=S)C(=O)CC(C)(C)C3)C(OC(C)=O)C(OC(C)=O)C1OC(C)=O (centres undefined) :: > 100 µM
N#CC(C#N)=c1c(=O)c2c3ccccc3cc3cccc1c32 :: > 100 µM
Sc1cccc2cccnc12 :: 6.23 µM
O=C1Cc2c(-c3cccs3)cc(-c3ccccc3)nc2-c2ccccc2N1 :: > 100 µM
O=S(=O)(NCCCNc1cc(-c2cn(-c3ccccc3)nc2-c2cccc(O)c2)ccn1)c1ccc(C(F)(F)F)cc1 :: 3.86 µM
O=C(O)C(Cc1cc(I)c(O)c(I)c1)C1CCCCC1 (centres undefined) :: 46 µM
COc1cc2c(c3oc(-c4ccc(O)cc4)c(O)c(=O)c13)CCC(C)(C)O2 :: 0.351 µM
CC(C)=CC[C@@H]1CC2(CC=C(C)C)C(=O)C(OC3(C(=O)c4ccccc4)C(=O)C4(CC=C(C)C)C[C@@H](CC=C(C)C)C(C)(C)C(CC=C(C)C)(C4=O)C3=O)(C(=O)c3ccccc3)C(=O)C(CC=C(C)C)(C2=O)C1(C)C (some centres undefined) :: 3.07 µM

For each of the molecules below, note its TGI.
1. COC(=O)/C=C1\SC2(OC1=Nc1ccccc1)C1CC3CC(C1)CC2C3 (centres undefined)
2. Brc1ccc(C2=NCSC(c3ccc(Br)cc3)=N2)cc1
3. C#CCN(Cc1ccc2nc(-c3ccccc3)c(Cl)nc2c1)c1ccc(F)cc1
4. O=C(Cc1ccccc1)NN1C(=O)C(Cl)C1c1ccc(Cl)cc1 (centres undefined)
5. Nc1ccc(/C=C/c2ccc3ncccc3c2)cc1
6. COc1cc(/C=C/C(=O)c2cccc(-n3cc(-c4ccccc4)[nH]c3=O)c2)cc(OC)c1OC
7. C/C(=C\C(=O)O[C@H]1[C@@H]2[C@H](C)CC[C@H]2[C@]2(C)O[C@@]1(C1CCCCC1)C[C@H]2OC(=O)CO)c1ccccc1
8. COC(=O)N[C@H]1CCc2cc(OC)c(OC)c(OC)c2-c2ccc(SC)c(=O)cc21

output:
["> 100 µM", "53.8 µM", "> 100 µM", "> 100 µM", "> 100 µM", "2.69 µM", "14.1 µM", "> 100 µM"]

For each of the molecules below, note its TGI.
1. CCOC(=O)c1noc2c1CCc1c-2cn(Cc2ccc(OC)cc2)c1-c1cc(OC)c(OC)c(OC)c1
2. COc1ccc2c(c1)/C(=C/c1c(O)[nH]c(=S)[nH]c1=O)C=N2

output:
1: > 100 µM; 2: > 100 µM

###

test system: KM12 colon; assay: NCI tumour cell line growth inhibition, 48 h
Assign TGI to each entry below.
Answers are plain numbers, in µM.

CC(C)=CC[C@@H]1CC2(CC=C(C)C)C(=O)C(OC3(C(=O)c4ccccc4)C(=O)C4(CC=C(C)C)C[C@@H](CC=C(C)C)C(C)(C)C(CC=C(C)C)(C4=O)C3=O)(C(=O)c3ccccc3)C(=O)C(CC=C(C)C)(C2=O)C1(C)C (some centres undefined) :: 6.13

Okay, now this compound:
input: Recorded TGI for CN1CCN(Cn2nc(COc3ccccc3Cl)n(/N=C/c3ccc(-c4ccc(Cl)cc4Cl)o3)c2=S)CC1 , please?
output: 42.1

###

system: K-562 leukemia; test: NCI tumour cell line growth inhibition, 48 h; in the data active = GI50 below about 0.43 µM; inactive = the rest
Allowed answers: true (active), false (inactive)

For orientation, consider the following solved cases.
CC(C)=CCC/C(C)=C/CC/C(C)=C/CSC[C@H](NC(=O)CCCCCN1CCN(C)CC1)C(=O)NC1CCCCCC1 :: false
CCOc1ccc(N(C)c2ccc(/C=C/C3=[N+](C)c4ccccc4C3(C)C)cc2)cc1 :: true
COc1ccc(-c2csc3c2-n2cccc2C3=O)cc1 :: true

input: Give the logged outcome of this assay for the following compound: Cn1ncnc1[C@@H]1c2n[nH]c(=O)c3cc(F)cc(c23)N[C@H]1c1ccc(F)cc1
output: false

input: Give the logged outcome of this assay for the following compound: O=C(CCCc1ccc(N(CCCl)CCCl)cc1)NCc1ccccc1
output: false

input: Give the logged outcome of this assay for the following compound: COc1cc2cc(NCc3cccc(Cl)c3)nc(C)c2cc1OC
output: false

input: Give the logged outcome of this assay for the following compound: CC(C)=CC[C@@H]1CC2(CC=C(C)C)C(=O)C(OC3(C(=O)c4ccccc4)C(=O)C4(CC=C(C)C)C[C@@H](CC=C(C)C)C(C)(C)C(CC=C(C)C)(C4=O)C3=O)(C(=O)c3ccccc3)C(=O)C(CC=C(C)C)(C2=O)C1(C)C (stereo partly specified)
output: false

input: Give the logged outcome of this assay for the following compound: Sc1cccc2cccnc12
output: true

input: Give the logged outcome of this assay for the following compound: CC(C)(C)CC(C)(C)c1ccc(OCCO)cc1
output: false

input: Give the logged outcome of this assay for the following compound: O=[N+]([O-])c1ccc(C2=NCCO2)cc1
output: false

input: Give the logged outcome of this assay for the following compound: CC(=O)/C(=C\c1ccc(Cl)cc1)c1ccccc1
output: true

###

tested on: ACHN renal; test: NCI tumour cell line growth inhibition, 48 h
Assign TGI to each entry below.

For each of the compounds below, note its TGI.
1. ClC1=C(Cl)C(Cl)(C2(Cl)C(Cl)=C(Cl)C(Cl)=C2Cl)C(Cl)=C1Cl
2. COc1ccc2c(O)c(Oc3ccc(Cl)cc3)c(=O)oc2c1
3. COc1cc(/C=C/C(=O)c2cccc(-n3cc(-c4ccccc4)[nH]c3=O)c2)cc(OC)c1OC

output:
1: 0.312 µM; 2: > 100 µM; 3: 3.21 µM

For each of the compounds below, note its TGI.
1. Cc1ccc(S(=O)(=O)NNC(=O)Nc2cccc(C(F)(F)F)c2)cc1
2. COCN1C(=O)[C@@H]2CCCN2C(=O)c2cc(OC)c(Cc3ccccc3)cc21

output:
> 100 µM
> 100 µM

For each of the compounds below, note its TGI.
1. CC(C)(CN1CCCCC1)C(=O)/C=C/c1ccccc1
2. C=C=C[P+](c1ccccc1)(c1ccccc1)c1ccccc1
3. O=[N+]([O-])c1ccc(C2=NCCO2)cc1
4. CCOc1ccc(N(C)c2ccc(/C=C/C3=[N+](C)c4ccccc4C3(C)C)cc2)cc1
5. O=C1CSC(c2c[nH]c3ccccc23)N1c1cccc(Cl)c1 (stereo unspecified)
6. O=C(O)c1ccccc1CN1CCCC(C(=O)O)C1 (stereo unspecified)

output:
96.6 µM
> 100 µM
> 100 µM
1.11 µM
> 100 µM
> 100 µM
